The reported measurements were obtained from patent US8580829B2.

# Tested on: synthesis of LTB4 in human whole blood
# methodDescription: human whole blood LTB4 production inhibition assay
# Type: cell-based
# measurementSetup: heparinized human whole blood, calcimycin 20 μM; read-out: hWB LTB4 IC50
pIC50: −log10 of the molar value.
measuredProperty: pIC50

COC(=O)[C@H]1CN(c2cnc(-c3nc(C4(c5ccc(-c6cnc(N)nc6)cc5)CCC4)no3)cn2)CCN1 [Example 308]
6.32
Nc1ncc(-c2ccc(C3(c4noc(-c5cnc(N6CCNCC6)cn5)n4)CCC3)cc2)cn1 [Example 307]
6.82

----------
Parameter: IC50. Scope: all listed entries.
# testSystem: recombinant human FLAP protein (Homo sapiens, UniProt P20292)
# Sequence (P20292 1-161): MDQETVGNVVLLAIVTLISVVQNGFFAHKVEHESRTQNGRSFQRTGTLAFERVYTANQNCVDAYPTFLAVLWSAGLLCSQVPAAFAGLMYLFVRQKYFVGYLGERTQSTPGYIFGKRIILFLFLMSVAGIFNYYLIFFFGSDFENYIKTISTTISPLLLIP
# methodDescription: FLAP binding assay (Scintillation Proximity Assay, displacement of [125I]L-691,831)
# measurementSetup: recombinant human FLAP membranes, [125I]L-691,831 probe; read-out: FLAP SPA IC50
measuredProperty: IC50 (nM)

Nc1ncc(-c2ccc(C3(c4noc(-c5ccc(N6CC[C@@H](O)C6)nc5)n4)CCC3)cc2)cn1 [Example 103]
1.3
Nc1ccc(-c2ccc(C3(c4noc(-c5cnc(N6CCNCC6)cn5)n4)CCC3)cc2)cn1 [Example 296]
2.1
CN(CCO)c1cc(-c2nc(C3(c4ccc(-c5cnc(N)nc5)cc4)CCC3)no2)ccn1 [Example 94]
6.1
Nc1ncc(-c2ccc(C3(c4noc(-c5cnc(N6CCNCC6)cn5)n4)CCC3)cc2)cn1 [Example 214]
4
Nc1ncc(-c2ccc(C3(c4noc(-c5cnn(C(=O)N6CCOCC6)c5)n4)CCC3)cc2)cn1 [Example 212]
2.2
Nc1ncc(-c2ccc(C3(c4noc(-c5ccc(N6CC[C@H](O)C6)nc5)n4)CCC3)cc2)cn1 [Example 105]
1.9
Nc1ncc(-c2ccc(C3(c4noc(-c5ccc[nH]c5=O)n4)CCC3)cc2)cn1 [Example 173]
2.9
CN(CCO)C(=O)c1ccc(-c2nc(C3(c4ccc(-c5cnc(N)nc5)cc4)CCC3)no2)cn1 [Example 78]
8.8
CS(=O)(=O)c1cccc(-c2nc(C3(c4ccc(-c5cnc(N)nc5)cc4)CCC3)no2)c1 [Example 39]
12
CN(CCO)c1cnc(-c2nc(C3(c4ccc(-c5cnc(N)nc5)cc4)CCC3)no2)cn1 [Example 61]
1.5
Nc1ncc(-c2ccc(C3(c4noc(N5CCC(O)CC5)n4)CCC3)cc2)cn1 [Example 284]
18
CS(=O)(=O)Nc1nc(C2(c3ccc(-c4cnc(N)nc4)cc3)CCC2)no1 [Example 27]
340
CS(=O)(=O)N1CCN(c2ccc(-c3nc(C4(c5ccc(-c6cnc(N)nc6)cc5)CCC4)no3)cn2)CC1 [Example 109]
1.3
CCn1ncc(-c2nc(C3(c4ccc(-c5cnc(N)nc5)cc4)CCC3)no2)c1C [Example 2]
2.2
CNC(=O)n1cc(-c2nc(C3(c4ccc(-c5cnc(N)nc5)cc4)CCC3)no2)cn1 [Example 213]
0.85
Nc1ncc(-c2ccc(C3(c4noc(-c5ccccn5)n4)CCOCC3)cc2)cn1 [Example 145]
78
